Cited source for all entries: patent US20050192289A1

- method_notes: In vivo bioavailability in the mouse (cassette dosing, i.v. or oral)
- details: mouse, plasma, female mice (SJL/N Tac), nominal dose 1 mg/kg/compound
readout_label: clearance (mL/min/kg)
Write the answer as a number in mL/min/kg, unit excluded.

molecule	clearance (mL/min/kg)
C[C@@H]1CN(C(=O)/C=C/c2ccc(Cl)cc2)[C@@H](C)CN1Cc1ccc(F)cc1 (racemic)	80

Prompt line: Tell me measured clearance for C[C@@H]1CN(C(=O)/C=C/c2ccc3nonc3c2)[C@@H](C)CN1Cc1ccc(F)cc1 (racemic) please.
Response line: 58.3

###

# Lookup of reported pIC50 keyed by entry
- experimental_system: cloned human CCR1 Chemokine receptor (Homo sapiens, UniProt P32246)
- Sequence (P32246 1-355): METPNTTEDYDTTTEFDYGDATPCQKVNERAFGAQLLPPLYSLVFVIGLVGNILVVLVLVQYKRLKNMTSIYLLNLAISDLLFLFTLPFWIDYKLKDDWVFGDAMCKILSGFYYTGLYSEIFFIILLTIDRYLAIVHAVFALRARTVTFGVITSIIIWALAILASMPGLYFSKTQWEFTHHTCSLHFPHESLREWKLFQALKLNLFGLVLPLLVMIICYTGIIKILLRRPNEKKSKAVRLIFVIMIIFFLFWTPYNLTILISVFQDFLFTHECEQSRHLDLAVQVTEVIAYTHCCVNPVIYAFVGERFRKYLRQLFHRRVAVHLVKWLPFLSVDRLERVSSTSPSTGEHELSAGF
Interpret pIC50 as the negative base-10 log of the concentration measured in mol/L.

Some compounds with recorded pIC50:
compound	experimental_system	readout_label	observed
O=C(/C=C/c1ccc(Cl)cc1)N1CCN(Cc2ccc(F)cc2)CC1 [B, reference compound]	cloned human CCR1 Chemokine receptor (Homo sapiens, UniProt P32246)	pIC50	6.63
COc1cc(/C=C/C(=O)N2CCN(Cc3ccc(F)cc3)CC2)cc(OC)c1OC [Compound A, reference compound]	cloned human CCR1 Chemokine receptor (Homo sapiens, UniProt P32246)	pIC50	6.25

Prompt line: Tell me measured pIC50 for C[C@@H]1CN(C(=O)/C=C/c2ccc3nonc3c2)[C@@H](C)CN1Cc1ccc(F)cc1 (racemic) please.
Response line: 7.37
